target: Fatty acid-binding protein, heart (Homo sapiens, UniProt P05413)
Sequence (P05413 whole entry): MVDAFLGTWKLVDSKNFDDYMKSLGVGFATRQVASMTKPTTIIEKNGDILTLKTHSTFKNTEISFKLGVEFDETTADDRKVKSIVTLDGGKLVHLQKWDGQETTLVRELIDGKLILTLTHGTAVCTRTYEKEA
Recorded endpoint: IC50

Compound	Recorded endpoint	Result
CN(Cc1ccccc1)c1nc(C(F)(F)F)cc(=O)[nH]1	IC50	> 100 µM
